molecular target: rat brain farnesyl:protein transferase (rat, UniProt Q04631 2-377; Q02293 1-437); test: farnesyltransferase activity inhibition; FIG. 12A
METRIC NAME: Ki (nM)
Numbers only, in nM.

So what's the measured Ki for this one? `CVFM`
10
